- Tested on: rat chronic carcinogenicity bioassay, TD50
- EXPERIMENTAL PROTOCOL: DSSTox (CPDBAS) Carcinogenic Potency Database Summary Rat Bioassay Results
- CONDITION LABEL: hits give low values

{"COMPOUND": "CN(N=O)c1ccc(F)cc1", "Potency": "0.255 mg/kg/day"}
{"COMPOUND": "CCCCN(CCCC)N=O", "Potency": "0.691 mg/kg/day"}
{"COMPOUND": "Nc1ccc(Oc2ccc(Cl)cc2)cc1", "Potency": "37.6 mg/kg/day"}
{"COMPOUND": "CCOC(=O)C(C)(C)Oc1ccc(Cl)cc1", "Potency": "169 mg/kg/day"}
{"COMPOUND": "[O]=[Cr](=[O])([OH])[O][Cr](=[O])(=[O])[OH]", "Potency": "4.64 mg/kg/day"}
{"COMPOUND": "CN(C)c1ccc(C(=N)c2ccc(N(C)C)cc2)cc1", "Potency": "11 mg/kg/day"}
{"COMPOUND": "Cc1ccc(C)c(N)c1", "Potency": "152 mg/kg/day"}
{"COMPOUND": "CCN=[N+](C)[O-]", "Potency": "11.5 mg/kg/day"}
{"COMPOUND": "CCCCCCCC(=O)OCC(COC(=O)CCCCCCC)OC(=O)CCCCCCC", "Potency": "5490 mg/kg/day"}
{"COMPOUND": "Cc1ccccc1N=O", "Potency": "50.7 mg/kg/day"}
{"COMPOUND": "CC(C)Oc1ccccc1OC(=O)N(C)N=O", "Potency": "0.364 mg/kg/day"}
{"COMPOUND": "Cc1ccc(N)cc1N", "Potency": "4.42 mg/kg/day"}
{"COMPOUND": "COc1ccc(OC)c(/C=C/c2ccc(N)cc2)c1", "Potency": "0.721 mg/kg/day"}
{"COMPOUND": "CCCCCCCCCCCN(C)N=O", "Potency": "2.37 mg/kg/day"}
{"COMPOUND": "CCC(C)[N+](=O)[O-] (stereo not given)", "Potency": "2.86 mg/kg/day"}
{"COMPOUND": "CC(=O)Nc1ccc(-c2ccc(F)cc2)cc1", "Potency": "1.01 mg/kg/day"}
{"COMPOUND": "ClC1(Cl)C2(Cl)C3C4(Cl)C1(Cl)C1(Cl)C4(Cl)C(Cl)(Cl)C3(Cl)C21Cl (stereo not given)", "Potency": "1.46 mg/kg/day"}
{"COMPOUND": "Cc1cc2c(nc1N)[nH]c1ccccc12", "Potency": "6.7 mg/kg/day"}
{"COMPOUND": "NC(=O)Cc1c([O-])on[n+]1Cc1ccccc1", "Potency": "4.24 mg/kg/day"}
{"COMPOUND": "Nc1ccc(-c2ccc(N)c(N)c2)cc1N", "Potency": "395 mg/kg/day"}
